# testedTarget: T1, recombinant human IL-6 (human, UniProt P05231 30-212)
# T1 construct: Flowed in solution over the captured antibodies
# T1 sequence (P05231 30-212 limits assumed): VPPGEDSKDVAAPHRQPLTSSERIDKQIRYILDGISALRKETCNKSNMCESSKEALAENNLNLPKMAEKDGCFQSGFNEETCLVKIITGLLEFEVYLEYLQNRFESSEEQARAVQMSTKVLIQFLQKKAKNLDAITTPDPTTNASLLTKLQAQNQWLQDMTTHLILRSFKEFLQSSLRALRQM
# assayComment: SPR (Biacore), supernatant IgG on Protein A, 25 C
The entries below are paired with their reported koff.
Give the value, in units of s⁻¹, as a plain number.

Check out these entries, answers already filled in.
[[record]]
binder = "anti-IL-6 antibody, heavy chain I51R, light chain WT (antibody, IgG1, V domains shown, Full IgG1 tested; V domains derived as in m2) VH: EVQLVESGGGLVQPGGSLRLSCAASGFTFSPFAMSWVRQAPGKGLEWVAKRSPGGSWTYYSDTVTGRFTFSLDTSKSTAYLQMNSLRAEDTAVYYCARQLWGYYALDIWGQGTLVTVSS VL: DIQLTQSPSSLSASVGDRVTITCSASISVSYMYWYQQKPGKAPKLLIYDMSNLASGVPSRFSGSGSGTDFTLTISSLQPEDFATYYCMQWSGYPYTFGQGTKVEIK"
readoutvalue = "7.6e-05"

[[record]]
binder = "anti-IL-6 antibody, heavy chain A105H, light chain WT (antibody, IgG1, V domains shown, Full IgG1 tested; V domains derived as in m2) VH: EVQLVESGGGLVQPGGSLRLSCAASGFTFSPFAMSWVRQAPGKGLEWVAKISPGGSWTYYSDTVTGRFTFSLDTSKSTAYLQMNSLRAEDTAVYYCARQLWGYYHLDIWGQGTLVTVSS VL: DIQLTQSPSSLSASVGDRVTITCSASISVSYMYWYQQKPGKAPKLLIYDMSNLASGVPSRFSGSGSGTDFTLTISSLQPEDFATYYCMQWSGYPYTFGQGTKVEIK"
readoutvalue = 0.000723

[[record]]
binder = "anti-IL-6 antibody, heavy chain G26R, light chain WT (antibody, IgG1, V domains shown, Full IgG1 tested; V domains derived as in m2) VH: EVQLVESGGGLVQPGGSLRLSCAASRFTFSPFAMSWVRQAPGKGLEWVAKISPGGSWTYYSDTVTGRFTFSLDTSKSTAYLQMNSLRAEDTAVYYCARQLWGYYALDIWGQGTLVTVSS VL: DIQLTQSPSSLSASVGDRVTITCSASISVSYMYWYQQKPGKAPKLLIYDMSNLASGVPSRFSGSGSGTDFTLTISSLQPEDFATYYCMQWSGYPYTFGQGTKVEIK"
readoutvalue = 0.000121


Fill in koff for record anti-IL-6 antibody, heavy chain Y103S, light chain WT (antibody, IgG1, V domains shown, Full IgG1 tested; V domains derived as in m2) VH: EVQLVESGGGLVQPGGSLRLSCAASGFTFSPFAMSWVRQAPGKGLEWVAKISPGGSWTYYSDTVTGRFTFSLDTSKSTAYLQMNSLRAEDTAVYYCARQLWGSYALDIWGQGTLVTVSS VL: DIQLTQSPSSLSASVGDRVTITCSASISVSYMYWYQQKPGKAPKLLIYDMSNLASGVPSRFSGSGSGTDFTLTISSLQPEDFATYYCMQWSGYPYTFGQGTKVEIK 0.000231

Output koff of anti-IL-6 antibody, heavy chain WT, light chain A25S (antibody, IgG1, V domains shown, Full IgG1 tested; V domains derived as in m2) VH: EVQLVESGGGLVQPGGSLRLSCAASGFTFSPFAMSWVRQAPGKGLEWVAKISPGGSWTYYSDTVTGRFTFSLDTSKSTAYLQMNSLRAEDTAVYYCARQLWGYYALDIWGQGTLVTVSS VL: DIQLTQSPSSLSASVGDRVTITCSSSISVSYMYWYQQKPGKAPKLLIYDMSNLASGVPSRFSGSGSGTDFTLTISSLQPEDFATYYCMQWSGYPYTFGQGTKVEIK 0.000105
